src = the RNAGym collection of RNA variant scans (doi:10.7554/elife.80360)

B1: Hairpin Ribozyme (parent)
chain: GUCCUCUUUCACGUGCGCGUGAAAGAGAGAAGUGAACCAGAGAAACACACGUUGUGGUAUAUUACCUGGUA

Variants of: B1
Experiment: self-cleavage, relative activity (ratio to wild type); higher = more cleavage; co-transcriptional
Endpoint label: self-cleavage
Write the number on its own, no unit after it.

A61G U70G : 0.156
A26C G40U : 0.114
U2A G29U : 0.111

Would you mind telling me what self-cleavage value was observed for C6U A11G ? 0.816

What value of measured self-cleavage is listed for G40U C48U ? 0.181

So what does the record say about self-cleavage for C6U C46U ? 0.176

Requested field: self-cleavage. Item: A28C U55C 0.216

# input variant: C6G A64G ; wanted: its self-cleavage 0.365
